Entry source: paper PMC12416549

- target_entity: T1, TNFR1 (Homo sapiens, UniProt P19438)
- T1 chain: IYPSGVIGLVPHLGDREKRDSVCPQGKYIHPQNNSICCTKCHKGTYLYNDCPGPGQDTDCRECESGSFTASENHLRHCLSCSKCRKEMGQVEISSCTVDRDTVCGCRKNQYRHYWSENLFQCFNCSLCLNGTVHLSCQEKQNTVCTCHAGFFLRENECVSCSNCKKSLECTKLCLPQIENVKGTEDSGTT
- assay: yeast display SC50
observable: apparent Kd (screen) (pM)

Answered cases to consult:
Query block: Determine from records and report apparent Kd (screen) for L82A (designed binder) MTLQELLREEALRRAEAEAFRYALELLAEKFPEQKEYLLDLAEEIESQIRSLSGVDVEDVRKFLDKEWAWVKELLAEHPAEAAEVEAARAARLAELRAEVEAKVAA
Result block: 869

Query block: Give apparent Kd (screen) for the following binder: E9W (designed binder) MTLQELLRWEALRRAEAEAFRYALELLAEKFPEQKEYLLDLAEEIESQIRSLSGVDVEDVRKFLDKEWAWVKELLAEHPAELAEVEAARAARLAELRAEVEAKVAA
Result block: 405

Query block: Tell me measured apparent Kd (screen) for V104W (designed binder) MTLQELLREEALRRAEAEAFRYALELLAEKFPEQKEYLLDLAEEIESQIRSLSGVDVEDVRKFLDKEWAWVKELLAEHPAELAEVEAARAARLAELRAEVEAKWAA please.
Result block: 869

Query block: Input Q34I (designed binder) MTLQELLREEALRRAEAEAFRYALELLAEKFPEIKEYLLDLAEEIESQIRSLSGVDVEDVRKFLDKEWAWVKELLAEHPAELAEVEAARAARLAELRAEVEAKVAA , output reported apparent Kd (screen).
Result block: 593

Query block: Dear colleague, please send me the reported apparent Kd (screen) for K30I (designed binder) MTLQELLREEALRRAEAEAFRYALELLAEIFPEQKEYLLDLAEEIESQIRSLSGVDVEDVRKFLDKEWAWVKELLAEHPAELAEVEAARAARLAELRAEVEAKVAA when you can.
Result block: 490

Query block: Annotate the binder K72G (designed binder) MTLQELLREEALRRAEAEAFRYALELLAEKFPEQKEYLLDLAEEIESQIRSLSGVDVEDVRKFLDKEWAWVGELLAEHPAELAEVEAARAARLAELRAEVEAKVAA with its measured apparent Kd (screen).
Result block: 653

Query block: Look up and report measured apparent Kd (screen) for this entry: L12R (designed binder) MTLQELLREEARRRAEAEAFRYALELLAEKFPEQKEYLLDLAEEIESQIRSLSGVDVEDVRKFLDKEWAWVKELLAEHPAELAEVEAARAARLAELRAEVEAKVAA
Result block: 490

Query block: Using known records, supply apparent Kd (screen) for V100I (designed binder) MTLQELLREEALRRAEAEAFRYALELLAEKFPEQKEYLLDLAEEIESQIRSLSGVDVEDVRKFLDKEWAWVKELLAEHPAELAEVEAARAARLAELRAEIEAKVAA
Result block: 653

[A] E33G (designed binder) MTLQELLREEALRRAEAEAFRYALELLAEKFPGQKEYLLDLAEEIESQIRSLSGVDVEDVRKFLDKEWAWVKELLAEHPAELAEVEAARAARLAELRAEVEAKVAA
[B] R13V (designed binder) MTLQELLREEALVRAEAEAFRYALELLAEKFPEQKEYLLDLAEEIESQIRSLSGVDVEDVRKFLDKEWAWVKELLAEHPAELAEVEAARAARLAELRAEVEAKVAA
[C] E29R (designed binder) MTLQELLREEALRRAEAEAFRYALELLARKFPEQKEYLLDLAEEIESQIRSLSGVDVEDVRKFLDKEWAWVKELLAEHPAELAEVEAARAARLAELRAEVEAKVAA
Query block: Ascending by apparent Kd (screen), please. Reply with the item labels sorted in the order that was asked for.
Result block: B, C, A
(B: 335 pM, C: 490 pM, A: 790 pM)

[I] A91T (designed binder) MTLQELLREEALRRAEAEAFRYALELLAEKFPEQKEYLLDLAEEIESQIRSLSGVDVEDVRKFLDKEWAWVKELLAEHPAELAEVEAARATRLAELRAEVEAKVAA
[II] E84H (designed binder) MTLQELLREEALRRAEAEAFRYALELLAEKFPEQKEYLLDLAEEIESQIRSLSGVDVEDVRKFLDKEWAWVKELLAEHPAELAHVEAARAARLAELRAEVEAKVAA
Query block: Between item I and item II , which reported apparent Kd (screen) is smaller? Label of pick, please.
Result block: I
(I: 593 pM, II: 869 pM)

[A] K103A (designed binder) MTLQELLREEALRRAEAEAFRYALELLAEKFPEQKEYLLDLAEEIESQIRSLSGVDVEDVRKFLDKEWAWVKELLAEHPAELAEVEAARAARLAELRAEVEAAVAA
[B] E58G (designed binder) MTLQELLREEALRRAEAEAFRYALELLAEKFPEQKEYLLDLAEEIESQIRSLSGVDVGDVRKFLDKEWAWVKELLAEHPAELAEVEAARAARLAELRAEVEAKVAA
Query block: I'm curious, which of these has a smaller apparent Kd (screen) number: A or B ? Answer with the label corresponding to your selection.
Result block: B
